Values from paper PMC12298624

- PROTOCOL NOTES: Parallel artificial membrane permeability assay (PAMPA)
- ASSAY CONTEXT: PAMPA, pH 7.4, Pe, PBS pH 7.4, 200 µM, 5 h, room temperature
- Protocol: With the high-throughput PAMPA the newly synthesized compounds were tested for their passive permeability through cell membranes without the influence of efflux pumps or transporter proteins. […] Absorption at different wavelengths covering a range from 200 to 300 nm was measured using a SpectraMax M3 UV plate reader. […] The plates were analyzed at the wavelength where the R2 value of the calibration curve was higher than 0.99 [47]. […]
# Papp at 5 h, 200 µM annotations

>  <QUERY SMILES>
O=C(Nc1ccc(N2CCNCC2)cc1)c1cccc(C(F)(F)F)c1Sc1ccc(F)cc1

>  <Papp at 5 h, 200 µM>
6.51 ×10⁻⁶ cm/s

$$$$
>  <QUERY SMILES>
O=C(c1cccc(C(F)(F)F)c1Oc1ccc(F)cc1)N1CCNCC1

>  <Papp at 5 h, 200 µM>
8.35 ×10⁻⁶ cm/s

$$$$
>  <QUERY SMILES>
O=C(Nc1ccc(N2CCNCC2)cc1)c1cccc([N+](=O)[O-])c1Oc1ccc(F)cc1

>  <Papp at 5 h, 200 µM>
8.36 ×10⁻⁶ cm/s

$$$$
>  <QUERY SMILES>
O=C(Nc1ccc(N2CCNCC2)cc1)c1cccc(C(F)(F)F)c1

>  <Papp at 5 h, 200 µM>
3.91 ×10⁻⁶ cm/s

$$$$
>  <QUERY SMILES>
O=C(Nc1ccc(N2CCNCC2)cc1)c1ccccc1Oc1ccccc1

>  <Papp at 5 h, 200 µM>
7.67 ×10⁻⁶ cm/s

$$$$
>  <QUERY SMILES>
O=C(Nc1ccccc1N1CCOCC1)c1cccc(C(F)(F)F)c1Oc1ccc(F)cc1

>  <Papp at 5 h, 200 µM>
6.63 ×10⁻⁶ cm/s

$$$$
>  <QUERY SMILES>
Nc1cccc(C(=O)Nc2ccc(N3CCNCC3)cc2)c1Oc1ccc(F)cc1

>  <Papp at 5 h, 200 µM>
5.76 ×10⁻⁶ cm/s

$$$$
>  <QUERY SMILES>
O=C(c1cccc(C(F)(F)F)c1Oc1ccc(F)cc1)N1CCOCC1

>  <Papp at 5 h, 200 µM>
10.4 ×10⁻⁶ cm/s

$$$$
>  <QUERY SMILES>
O=C(Nc1ccc(N2CCOCC2)cc1)c1cccc(C(F)(F)F)c1Oc1ccc(F)cc1

>  <Papp at 5 h, 200 µM>
3.92 ×10⁻⁶ cm/s

$$$$

====

# MBC annotations
- System: M. luteus ATCC 10240
- PROTOCOL NOTES: MIC/MBC microbroth dilution (EUCAST)
- Format: cell-based, Micrococcus luteus
- ASSAY CONTEXT: Micrococcus luteus, ATCC10240, M. luteus ATCC 10240; read-out: MBC

>  <COMPOUND>
Nc1cccc(C(=O)Nc2ccc(N3CCNCC3)cc2)c1Oc1ccc(F)cc1 [Compound 65]

>  <LIMIT SIGN>
>

>  <MBC (µg/mL)>
256

$$$$
>  <COMPOUND>
O=C(Nc1ccc(N2CCNCC2)cc1)c1cccc(C(F)(F)F)c1Sc1ccc(F)cc1 [Compound 62]

>  <LIMIT SIGN>
=

>  <MBC (µg/mL)>
128

$$$$
>  <COMPOUND>
CN1CCN(C(=O)c2cccc(C(F)(F)F)c2Oc2ccc(F)cc2)CC1 [Compound 49]

>  <LIMIT SIGN>
=

>  <MBC (µg/mL)>
256

$$$$
>  <COMPOUND>
O=C(Nc1ccc(N2CCNCC2)cc1)c1cccc([N+](=O)[O-])c1Oc1ccc(F)cc1 [Compound 61]

>  <LIMIT SIGN>
=

>  <MBC (µg/mL)>
128

$$$$
>  <COMPOUND>
O=C(Nc1ccc(N2CCNCC2)cc1)c1cccc(C(F)(F)F)c1Oc1ccccc1 [Compound 58]

>  <LIMIT SIGN>
=

>  <MBC (µg/mL)>
128

$$$$
>  <COMPOUND>
O=C(c1cccc(C(F)(F)F)c1Oc1ccc(F)cc1)N1CCNCC1 [Compound 52]

>  <LIMIT SIGN>
=

>  <MBC (µg/mL)>
256

$$$$
>  <COMPOUND>
O=C(c1cccc(C(F)(F)F)c1Oc1ccc(F)cc1)N1CCOCC1 [Compound 51]

>  <LIMIT SIGN>
=

>  <MBC (µg/mL)>
128

$$$$

====

- PROTOCOL NOTES: Resazurin-based in vitro cytotoxicity with L-6 cells
- Type: cell-based, rat
- ASSAY CONTEXT: rat skeletal myofibroblasts; read-out: Cytotoxicity L-6 Cells IC50
EXPERIMENTAL READOUT: IC50 at 70 h (µM)

>  <MOLECULE>
COc1cc([C@@H]2c3cc4c(cc3[C@H](O)[C@H]3COC(=O)[C@H]23)OCO4)cc(OC)c1OC [POD, podophyllotoxin, reference compound]

>  <UNIT INFO>
µM

>  <MEASURED RESULT>
0.012

$$$$
>  <MOLECULE>
CCN(CC)CCCC(C)Nc1ccnc2cc(Cl)ccc12 (centres unmarked) [CQ, chloroquine, reference compound]

>  <UNIT INFO>
µM

>  <MEASURED RESULT>
90.9

$$$$

====

- System: B. subtilis 168a
- PROTOCOL NOTES: MIC/MBC microbroth dilution (EUCAST)
- Type: cell-based, Bacillus subtilis
- ASSAY CONTEXT: Bacillus subtilis, 168A, read-out: MIC
- Description: Minimum inhibitory concentrations (MIC values) were obtained using the microbroth dilution method as stated in the EUCAST guidelines. Tests were conducted on cation adjusted Mueller–Hinton broth (caMHB) or agar (caMHA). […] These were grown for 24 h at 37 °C, except for Micrococcus luteus where MICs took longer to grow and as a consequence were read after 48 h once a clear positive control could be observed. […] The last clear well, where there is no growth of bacteria, was counted as the MIC value. […]
EXPERIMENTAL READOUT: MIC (µg/mL)

>  <QUERY SMILES>
O=C(c1cccc(C(F)(F)F)c1Oc1ccc(F)cc1)N1CCOCC1

>  <ASSAYED SYSTEM>
B. subtilis 168a

>  <EXPERIMENTAL READOUT>
MIC

>  <LIMIT SIGN>
=

>  <MEASURED RESULT>
256

$$$$
>  <QUERY SMILES>
O=C(Nc1ccc(N2CCNCC2)cc1)c1cccc([N+](=O)[O-])c1Oc1ccc(F)cc1

>  <ASSAYED SYSTEM>
B. subtilis 168a

>  <EXPERIMENTAL READOUT>
MIC

>  <LIMIT SIGN>
=

>  <MEASURED RESULT>
256

$$$$
>  <QUERY SMILES>
O=C(Nc1cccc(N2CCNCC2)c1)c1cccc(C(F)(F)F)c1Oc1ccc(F)cc1

>  <ASSAYED SYSTEM>
B. subtilis 168a

>  <EXPERIMENTAL READOUT>
MIC

>  <LIMIT SIGN>
=

>  <MEASURED RESULT>
128

$$$$
>  <QUERY SMILES>
O=C(Nc1ccc(N2CCNCC2)cc1)c1ccccc1Oc1ccc(F)cc1

>  <ASSAYED SYSTEM>
B. subtilis 168a

>  <EXPERIMENTAL READOUT>
MIC

>  <LIMIT SIGN>
=

>  <MEASURED RESULT>
128

$$$$
>  <QUERY SMILES>
O=C(Nc1ccc(N2CCNCC2)cc1)c1cccc(C(F)(F)F)c1Oc1ccc(F)cc1

>  <ASSAYED SYSTEM>
B. subtilis 168a

>  <EXPERIMENTAL READOUT>
MIC

>  <LIMIT SIGN>
=

>  <MEASURED RESULT>
128

$$$$
>  <QUERY SMILES>
O=C(Nc1ccc(N2CCNCC2)cc1)c1ccccc1Oc1ccccc1

>  <ASSAYED SYSTEM>
B. subtilis 168a

>  <EXPERIMENTAL READOUT>
MIC

>  <LIMIT SIGN>
=

>  <MEASURED RESULT>
128

$$$$
>  <QUERY SMILES>
O=C(Nc1ccc(N2CCNCC2)cc1)c1cccc(F)c1Oc1ccc(F)cc1

>  <ASSAYED SYSTEM>
B. subtilis 168a

>  <EXPERIMENTAL READOUT>
MIC

>  <LIMIT SIGN>
=

>  <MEASURED RESULT>
256

$$$$
>  <QUERY SMILES>
O=C(c1cccc(C(F)(F)F)c1Oc1ccc(F)cc1)N1CCNCC1

>  <ASSAYED SYSTEM>
B. subtilis 168a

>  <EXPERIMENTAL READOUT>
MIC

>  <LIMIT SIGN>
>

>  <MEASURED RESULT>
256

$$$$
>  <QUERY SMILES>
CN1CCN(C(=O)c2cccc(C(F)(F)F)c2Oc2ccc(F)cc2)CC1

>  <ASSAYED SYSTEM>
B. subtilis 168a

>  <EXPERIMENTAL READOUT>
MIC

>  <LIMIT SIGN>
=

>  <MEASURED RESULT>
256

$$$$
>  <QUERY SMILES>
O=C(Nc1ccc(N2CCNCC2)cc1)c1cccc(C(F)(F)F)c1Oc1ccccc1

>  <ASSAYED SYSTEM>
B. subtilis 168a

>  <EXPERIMENTAL READOUT>
MIC

>  <LIMIT SIGN>
=

>  <MEASURED RESULT>
128

$$$$
>  <QUERY SMILES>
Nc1cccc(C(=O)Nc2ccc(N3CCNCC3)cc2)c1Oc1ccc(F)cc1

>  <ASSAYED SYSTEM>
B. subtilis 168a

>  <EXPERIMENTAL READOUT>
MIC

>  <LIMIT SIGN>
>

>  <MEASURED RESULT>
256

$$$$
>  <QUERY SMILES>
O=C(Nc1ccc(N2CCNCC2)cc1)c1cccc(C(F)(F)F)c1Sc1ccc(F)cc1

>  <ASSAYED SYSTEM>
B. subtilis 168a

>  <EXPERIMENTAL READOUT>
MIC

>  <LIMIT SIGN>
=

>  <MEASURED RESULT>
128

$$$$
